Origin of values: PubChem BioAssay AID1963853

Test system: 266295-075-R-J1-PDC spheroid viability
Test description: Anticancer human tumor 266295-075-R-J1-PDC patient-derived head and neck squamous carcinoma cell line growth inhibition [POLQ]
Test conditions: second compound 1 µM; first compound 0.316 µM; stronger effect = lower value; spheroids with HUVEC and MSC
Listed below: viability, T/C values for each entry.

Exercise: Which viability, T/C is listed for COc1cc2cc(C(=O)CCC(=O)O)sc2cc1OC + Cc1cccc(N(C)C(=O)C2C(O)CCN2c2nc(C)cc(C(F)(F)F)c2C#N)c1 ?
Key: 126%

Exercise: Input CCc1c2c(nc3ccc(O)cc13)-c1cc3c(c(=O)n1C2)COC(=O)[C@]3(O)CC + Cc1cccc(N(C)C(=O)C2C(O)CCN2c2nc(C)cc(C(F)(F)F)c2C#N)c1
Key: 92.7%

More entries:
Exercise: Which viability, T/C is listed for CCCS(=O)(=O)Nc1ccc(F)c(C(=O)c2c[nH]c3ncc(-c4ccc(Cl)cc4)cc23)c1F + COC1C(OC(N)=O)C(O)C(Oc2ccc3c(O)c(NC(=O)c4ccc(O)c(CC=C(C)C)c4)c(=O)oc3c2C)OC1(C)C ?
Key: 102%

Exercise: Input O=C(Nc1ccc(O)c(NS(=O)(=O)c2ccc(F)cc2)c1)c1ccc(-c2ccccc2)cc1 + COC1C(OC(N)=O)C(O)C(Oc2ccc3c(O)c(NC(=O)c4ccc(O)c(CC=C(C)C)c4)c(=O)oc3c2C)OC1(C)C
Key: 99.7%

---

Test system: 266295-075-R-J1-PDC spheroid viability
Test description: Anticancer human tumor 266295-075-R-J1-PDC cell line growth inhibition [POLQ];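 note: spheroids exposed to compounds for seven days before readout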
Test conditions: second compound 0.1 µM; first compound 10 µM; stronger effect = lower value; spheroids with HUVEC and MSC
Measurement name: viability, T/C (%)
# output: bare number, implied unit %

Example results:
Exercise: Which viability, T/C is listed for CCc1cc2c(N3CCc4c(cc(Cn5ccnc5)cc4-c4cn(C)nc4C(F)(F)F)C3=O)ccnc2c(OC)n1 + COC1C(OC(N)=O)C(O)C(Oc2ccc3c(O)c(NC(=O)c4ccc(O)c(CC=C(C)C)c4)c(=O)oc3c2C)OC1(C)C ?
Key: 132

Exercise: Input Nc1ccn(C2OC(CO)C(O)C2(F)F)c(=O)n1 (stereo not drawn) + COC1C(OC(N)=O)C(O)C(Oc2ccc3c(O)c(NC(=O)c4ccc(O)c(CC=C(C)C)c4)c(=O)oc3c2C)OC1(C)C
Key: 75.2

Attention now turns to another entry.
Exercise: Which viability, T/C is listed for CC1COCCN1c1cc(C2(S(C)(=N)=O)CC2)nc(-c2ccnc3[nH]ccc23)n1 (stereo not drawn) + COC1C(OC(N)=O)C(O)C(Oc2ccc3c(O)c(NC(=O)c4ccc(O)c(CC=C(C)C)c4)c(=O)oc3c2C)OC1(C)C ?
Key: 63.5

---

Tested on: 266295-075-R-J1-PDC spheroid viability
Test description: Anticancer human tumor 266295-075-R-J1-PDC cell line growth inhibition [POLQ];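 note: spheroids exposed to compounds for seven days before readout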
Test conditions: second compound 0.1 µM; first compound 1 µM; stronger effect = lower value; spheroids with HUVEC and MSC
Measurement name: viability, T/C (%)
# output: bare number, implied unit %

Example results:
Exercise: Which viability, T/C is listed for CC(C)n1c(=O)n(C)c2cnc3cc(F)c(-c4ccc(OCCCN5CCCCC5)nc4)cc3c21 + Nc1ccc(C#CCN(C(=O)Cc2ncc(C(F)(F)F)cc2C(F)(F)F)c2ccc(F)cc2)nn1 ?
Key: 80.6

Exercise: Input O=C(c1cc(Cc2n[nH]c(=O)c3ccccc23)ccc1F)N1CCN(C(=O)C2CC2)CC1 + Nc1ccc(C#CCN(C(=O)Cc2ncc(C(F)(F)F)cc2C(F)(F)F)c2ccc(F)cc2)nn1
Key: 92.9

Exercise: Input COc1ccc([C@@H](O)c2cc(-c3ncnc4cc(N5CCOCC5)ccc34)c(F)cc2Cl)nn1 + COC1C(OC(N)=O)C(O)C(Oc2ccc3c(O)c(NC(=O)c4ccc(O)c(CC=C(C)C)c4)c(=O)oc3c2C)OC1(C)C
Key: 74.5

Exercise: Input CCc1cc2c(N3CCc4c(cc(Cn5ccnc5)cc4-c4cn(C)nc4C(F)(F)F)C3=O)ccnc2c(OC)n1 + Cc1cccc(N(C)C(=O)C2C(O)CCN2c2nc(C)cc(C(F)(F)F)c2C#N)c1
Key: 99.6

Attention now turns to another entry.
Exercise: Which viability, T/C is listed for CCCS(=O)(=O)Nc1ccc(F)c(C(=O)c2c[nH]c3ncc(-c4ccc(Cl)cc4)cc23)c1F + Cc1cccc(N(C)C(=O)C2C(O)CCN2c2nc(C)cc(C(F)(F)F)c2C#N)c1 ?
Key: 126

---

Test system: 266295-075-R-J1-PDC spheroid viability
Test description: Anticancer human tumor 266295-075-R-J1-PDC cell line growth inhibition [POLQ];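 note: spheroids exposed to compounds for seven days before readout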
Test conditions: second compound 0.0316 µM; first compound 0.316 µM; stronger effect = lower value; spheroids with HUVEC and MSC
Listed below: viability, T/C values for each entry.
# output: bare number, implied unit %

Exercise: Param readout = viability, T/C; param system = 266295-075-R-J1-PDC spheroid viability; param query = CC1COCCN1c1cc(C2(O)CC3CCC(C2)O3)c2cnn(-c3ccn[nH]3)c2n1 (stereo unspecified) + Cc1cccc(N(C)C(=O)C2C(O)CCN2c2nc(C)cc(C(F)(F)F)c2C#N)c1 ; response: value
Key: 61.3

Exercise: Input CCCS(=O)(=O)Nc1ccc(F)c(C(=O)c2c[nH]c3ncc(-c4ccc(Cl)cc4)cc23)c1F + COC1C(OC(N)=O)C(O)C(Oc2ccc3c(O)c(NC(=O)c4ccc(O)c(CC=C(C)C)c4)c(=O)oc3c2C)OC1(C)C
Key: 107

Exercise: Input CNCc1ccc(-c2[nH]c3cc(F)cc4c3c2CCNC4=O)cc1 + Nc1ccc(C#CCN(C(=O)Cc2ncc(C(F)(F)F)cc2C(F)(F)F)c2ccc(F)cc2)nn1
Key: 93.5

Exercise: Input CCc1c2c(nc3ccc(O)cc13)-c1cc3c(c(=O)n1C2)COC(=O)[C@]3(O)CC + Nc1ccc(C#CCN(C(=O)Cc2ncc(C(F)(F)F)cc2C(F)(F)F)c2ccc(F)cc2)nn1
Key: 106

Exercise: Input O=C(c1cc(Cc2n[nH]c(=O)c3ccccc23)ccc1F)N1CCN(C(=O)C2CC2)CC1 + Cc1cccc(N(C)C(=O)C2C(O)CCN2c2nc(C)cc(C(F)(F)F)c2C#N)c1
Key: 80.3

Exercise: Input COc1cc2cc(C(=O)CCC(=O)O)sc2cc1OC + COC1C(OC(N)=O)C(O)C(Oc2ccc3c(O)c(NC(=O)c4ccc(O)c(CC=C(C)C)c4)c(=O)oc3c2C)OC1(C)C
Key: 114

Exercise: Input O=c1[nH]cc(F)c(=O)[nH]1 + Nc1ccc(C#CCN(C(=O)Cc2ncc(C(F)(F)F)cc2C(F)(F)F)c2ccc(F)cc2)nn1
Key: 104

Exercise: Input Nc1ccn(C2OC(CO)C(O)C2(F)F)c(=O)n1 (stereo unspecified) + Cc1cccc(N(C)C(=O)C2C(O)CCN2c2nc(C)cc(C(F)(F)F)c2C#N)c1
Key: 81.5

Exercise: Input COc1cccc(OCCCN)c1-c1cc(Nc2cnc(C#N)cn2)n[nH]1 + COC1C(OC(N)=O)C(O)C(Oc2ccc3c(O)c(NC(=O)c4ccc(O)c(CC=C(C)C)c4)c(=O)oc3c2C)OC1(C)C
Key: 67.1

Exercise: Input COc1cc(C2c3cc4c(cc3C(OC3OC5COC(C)OC5C(O)C3O)C3COC(=O)C23)OCO4)cc(OC)c1O (stereo unspecified) + COC1C(OC(N)=O)C(O)C(Oc2ccc3c(O)c(NC(=O)c4ccc(O)c(CC=C(C)C)c4)c(=O)oc3c2C)OC1(C)C
Key: 93.5

Attention now turns to another entry.
Exercise: Param readout = viability, T/C; param system = 266295-075-R-J1-PDC spheroid viability; param query = CC(C)n1c(=O)n(C)c2cnc3cc(F)c(-c4ccc(OCCCN5CCCCC5)nc4)cc3c21 + Nc1ccc(C#CCN(C(=O)Cc2ncc(C(F)(F)F)cc2C(F)(F)F)c2ccc(F)cc2)nn1 ; response: value
Key: 104

---

Listed below: viability, T/C values for each entry.
Test system: 266295-075-R-J1-PDC spheroid viability
Test description: Anticancer human tumor 266295-075-R-J1-PDC cell line growth inhibition [POLQ];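 note: spheroids exposed to compounds for seven days before readout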
Test conditions: second compound 0.1 µM; first compound 10 µM; stronger effect = lower value; spheroids with HUVEC and MSC

Exercise: Param readout = viability, T/C; param system = 266295-075-R-J1-PDC spheroid viability; param query = C#Cc1c(F)ccc2cc(O)cc(-c3ncc4c(N5CC6CCC(C5)N6)nc(OCC56CCCN5CC(F)C6)nc4c3F)c12 (stereo not given) + Nc1ccc(C#CCN(C(=O)Cc2ncc(C(F)(F)F)cc2C(F)(F)F)c2ccc(F)cc2)nn1 ; response: value
Key: 43.7%

Exercise: Input O=C(c1cc(Cc2n[nH]c(=O)c3ccccc23)ccc1F)N1CCN(C(=O)C2CC2)CC1 + Cc1cccc(N(C)C(=O)C2C(O)CCN2c2nc(C)cc(C(F)(F)F)c2C#N)c1
Key: 78%

Exercise: Input CC1COCCN1c1cc(C2(O)CC3CCC(C2)O3)c2cnn(-c3ccn[nH]3)c2n1 (stereo not given) + Cc1cccc(N(C)C(=O)C2C(O)CCN2c2nc(C)cc(C(F)(F)F)c2C#N)c1
Key: 29.7%

Exercise: Input CNCc1ccc(-c2[nH]c3cc(F)cc4c3c2CCNC4=O)cc1 + Cc1cccc(N(C)C(=O)C2C(O)CCN2c2nc(C)cc(C(F)(F)F)c2C#N)c1
Key: 128%

More entries:
Exercise: Param readout = viability, T/C; param system = 266295-075-R-J1-PDC spheroid viability; param query = COc1cccc2c1C(=O)c1c(O)c3c(c(O)c1C2=O)CC(O)(C(=O)CO)CC3OC1CC(N)C(O)C(C)O1 (stereo not given) + Nc1ccc(C#CCN(C(=O)Cc2ncc(C(F)(F)F)cc2C(F)(F)F)c2ccc(F)cc2)nn1 ; response: value
Key: 2.03%
